These entries and their values trace back to ChEMBL document CHEMBL4033797.

Quick reference for logD among some compounds
# experiment_description: Lipophilicity, log D of the compound at pH 7.4
# Format: physicochemical
# cond: buffer

compound_structure_string	logD
COc1ccc2c(n1)CCN(C(=O)[C@H]1C[C@@H](C(=O)O)C1)[C@H]2C(=O)Nc1cc(F)c2c(c1)CCC2(C)C	3.39
COc1ccc2c(n1)CCN(C(=O)[C@H]1C[C@H](C(=O)O)C1)[C@H]2C(=O)Nc1cc(F)c2c(c1)CCC2(C)C	3.46
COc1ccc2c(c1)CCN(C(=O)CCCC(=O)O)[C@H]2C(=O)Nc1cc(F)c2c(c1)CCC2(C)C	3.37
COc1ccc2c(c1)CCN(C(=O)CCCC(=O)O)[C@H]2C(=O)Nc1cc(F)c(C(C)(C)C)c(F)c1	3.77
COc1ccc2c(n1)CCN(C(=O)N1CC(CC(=O)O)C1)[C@H]2C(=O)Nc1cc(F)c2c(c1)CCC2(C)C	3.42
COc1ccc2c(n1)CCN(C(=O)C1CN(CC(=O)O)C1)[C@H]2C(=O)Nc1cc(F)c2c(c1)CCC2(C)C	3.39
COc1ccc2c(n1)CCN(C(=O)[C@H]1C[C@@H](CC(=O)O)C1)[C@H]2C(=O)Nc1cc(F)c2c(c1)CCC2(C)C	3.53
COc1ccc2c(n1)CCN(C(=O)[C@H]1C[C@H](CC(=O)O)C1)[C@H]2C(=O)Nc1cc(F)c2c(c1)CCC2(C)C	3.54
COc1ccc2c(n1)CCN(C(=O)CCCC(=O)O)[C@H]2C(=O)Nc1cc(F)c([Si](C)(C)C)c(F)c1	4.04
COc1ccc2c(c1)CCN(C(=O)CCCC(=O)O)[C@H]2C(=O)Nc1cc(F)c([Si](C)(C)C)c(F)c1	3.96

---

# experiment_description: Cmax in mouse at 1 mg/kg, po administered via cassette dosing
# Assay type: ADME, organism-based
# Parameters: dose 1 mg/kg, route oral
# cond: in vivo
endpoint_label: Cmax (ng/mL)

compound_structure_string	test_result
COc1ccc2c(n1)CCN(C(=O)[C@H]1C[C@@H](CC(=O)O)C1)[C@H]2C(=O)Nc1cc(F)c2c(c1)CCC2(C)C	1560

---

Quick reference for bioavailability among some compounds
# experiment_description: Oral bioavailability in mouse at 1 mg/kg administered via cassette dosing
# Assay type: ADME, organism-based
# cond: in vivo

compound_structure_string	bioavailability (%)
COc1ccc2c(c1)CCN(C(=O)CCCC(=O)O)[C@H]2C(=O)Nc1cc(F)c2c(c1)CCC2(C)C	91
COc1ccc2c(n1)CCN(C(=O)CCCC(=O)O)[C@H]2C(=O)Nc1cc(F)c2c(c1)CCC2(C)C	58
COc1ccc2c(c1)CCN(C(=O)CCCC(=O)O)[C@H]2C(=O)Nc1cc(F)c(C(C)(C)C)c(F)c1	62
COCC(C)(C)c1c(F)cc(NC(=O)[C@H]2c3ccc(OC)cc3CCN2C(=O)CCCC(=O)O)cc1F	78
COc1ccc2c(n1)CCN(C(=O)CCCC(=O)O)[C@H]2C(=O)Nc1cc(F)c([Si](C)(C)C)c(F)c1	51

---

# experiment_description: Tmax in mouse at 1 mg/kg, po administered via cassette dosing
# Type: ADME, organism-based
# cond: in vivo

compound_structure_string	Tmax
COc1ccc2c(n1)CCN(C(=O)[C@H]1C[C@@H](CC(=O)O)C1)[C@H]2C(=O)Nc1cc(F)c2c(c1)CCC2(C)C	2.3 h
